Tested on: MES-SA/Dx5
protocolNotes: Cytotoxicity in double coculture, MES-SA/Dx5 eGFP
conditionDescription: read-out: IC50 MES-SA/Dx5; double coculture with MES-SA; 144 h; without TQ
reportedEndpoint: IC50
Answer format: value, then unit.

Input line: Bench note: what IC50 did Cc1c(C)c(C)[c-](C)c1C.[Cl-].[Cl-].[O-]c1c(C[NH+]2CCCC2)cc(Cl)c2cccnc12.[Rh+3] [(1), [RhCp*(HQCl-Pyr)Cl]Cl] show?
Output line: 190 nM

* * *

System: MES-SA
protocolNotes: Cytotoxicity in double coculture, MES-SA mCherry
conditionDescription: read-out: IC50 MES-SA; double coculture with MES-SA/Dx5; 144 h; without TQ
reportedEndpoint: IC50 (µM)
Answers are plain numbers, in µM.

Input line: Item under review: Cc1c(C)c(C)[c-](C)c1C.[Cl-].[Cl-].[O-]c1c(C[NH+]2CCCC2)cc(Cl)c2cccnc12.[Rh+3] [(1), [RhCp*(HQCl-Pyr)Cl]Cl] . Reported IC50?
Output line: 2.97
